From: PubChem BioAssay (NCI)

tested on: NCI-H460 lung; experiment: NCI tumour cell line growth inhibition, 48 h
quantity.measured: TGI

Prompt: State the recorded TGI for this entry: c1csc(-c2nn3c(C45CC6CC(CC(C6)C4)C5)nnc3s2)c1
Completion: > 100 µM

Prompt: State the recorded TGI for this entry: O=C(/C=C\c1ccccc1O)c1ccc(O)cc1O
Completion: > 100 µM

Prompt: State the recorded TGI for this entry: Cc1cc(S(=O)(=O)NC2=NCc3nc4ccccc4n32)c(S)cc1Cl
Completion: 82.4 µM

Prompt: State the recorded TGI for this entry: O=C(CSCC(=O)N/N=C/c1ccc2c(c1)OCO2)N/N=C/c1ccc2c(c1)OCO2
Completion: > 100 µM

Prompt: State the recorded TGI for this entry: COC(=O)[C@]12CC3C=CC1N(C3)C(CBr)c1c2n(S(=O)(=O)c2ccccc2)c2ccccc12 (stereo partly specified)
Completion: > 100 µM

Prompt: State the recorded TGI for this entry: Cc1c(C)n(CCCN2CCN(C)CC2)c2ccc(Oc3cccc(C(=O)N4CCN(CCc5ccc(F)cc5)CC4)c3)cc12
Completion: 3.45 µM

Prompt: State the recorded TGI for this entry: COc1cc2c(cc1OC)OC(c1c(OC)ccc(OC)c1O)CC2 (stereo unspecified)
Completion: > 100 µM

Prompt: State the recorded TGI for this entry: Cc1ccc2c(c1)SC1=Nc3sc4cc(C)ccc4[n+]3CN12
Completion: > 100 µM

Prompt: State the recorded TGI for this entry: C=CC(=O)Nc1ccc(NC(=O)C=C)c2c1C(=O)c1ccccc1C2=O
Completion: > 100 µM

Prompt: State the recorded TGI for this entry: C=C[C@@H](C)[C@]1(C(=O)OC)CCCC12OCCO2
Completion: > 100 µM

Prompt: State the recorded TGI for this entry: CNC(=O)OCc1nc(SC)n(C)c1CO
Completion: > 100 µM

----------
Entries and their measured TGI follow.
test system: UACC-257 melanoma; assay: NCI tumour cell line growth inhibition, 48 h
Write it as a number; the unit µM goes unstated.

Field: example entries. Status: answers known.
1) COc1ccc(C(c2ccccc2)(c2ccc(OC)cc2)N2C(=O)NC3C(CCCCC(=O)NCCCCCCOP(OCCC#N)N(C(C)C)C(C)C)SCC32)cc1 (centres undefined); 42.6
2) C=CN(C(=O)N1CCN(c2cc3c(cc2F)c(=O)c(C(=O)O)cn3C2CC2)CC1)c1nc(-c2ccc(OC)cc2)cs1; 7.18

Prompt: State the recorded TGI for this entry: OCC1C(OCc2ccccc2)C(OCc2ccccc2)C(OCc2ccccc2)CN1Cc1ccccc1 (centres undefined)
Completion: 81

Prompt: State the recorded TGI for this entry: COc1cccc2c1c1ccc3c(c1n2C)C(=O)C=CC3=O
Completion: 30.3

Prompt: State the recorded TGI for this entry: CC1(C)OC2C(COC(c3ccccc3)(c3ccccc3)c3ccccc3)OC(c3c[nH]c4c(N)ncnc34)C2O1 (centres undefined)
Completion: 17.5

----------
tested on: EKVX NSCLC; assay: NCI tumour cell line growth inhibition, 48 h
Entries and their measured TGI follow.
Write it as a number; the unit µM goes unstated.

Field: example entries. Status: answers known.
1) CCOc1cc(C2CC(c3ccc(NS(=O)(=O)c4cc([N+](=O)[O-])ccc4C)cc3)=NN2S(=O)(=O)c2cc([N+](=O)[O-])ccc2C)ccc1O (configuration not stated); 82.2
2) Cc1cc2c(C(=O)NC[C@H](C)c3ccccc3)c(O)c(O)cc2c(O)c1-c1c(C)cc2c(C(=O)NC[C@H](C)c3ccccc3)c(O)c(O)cc2c1O; 8.1

Now consider a different molecule.
Prompt: State the recorded TGI for this entry: CN[C@H]1CN(c2ccc3c(=O)c(C(=O)O)cn(-c4nccs4)c3n2)C[C@@H]1OC
Completion: 7.17
